Attribution: PubChem BioAssay (NCI)

Tested on: RXF 393 renal
Experiment: NCI-60 one-dose screen, 48 h
Details: 10 µM unless noted
About 83,000 compounds went through this panel and 20% of them were active in at least one assay; those are over-represented in the sample as a whole. Active and inactive are the calls of the source. The calls were made as follows: active = growth percent below 10; inactive = the rest.
Classes used: T = active, F = inactive

{"MOLECULE": "CCCCOc1ccc(NC(=O)n2nc(N=NN(C)C)c3ccc(Cl)cc32)cc1", "CLASS": "F"}
{"MOLECULE": "Cc1c(C(N)=O)sc2nc(C)n(/N=c3\\scc(-c4ccccc4)n3Cc3ccccc3)c(=O)c12", "CLASS": "T"}
{"MOLECULE": "c1ccc2c(c1)nc(-n1ccnc1)c1nc3ccccc3n12", "CLASS": "F"}
{"MOLECULE": "Cc1nc(C)c(-c2nn3c(-c4cccc(F)c4)nnc3s2)s1", "CLASS": "F"}
{"MOLECULE": "N#Cc1c(N)n2c(nc1=Nc1ccc(Cl)cc1)sc1cc(Cl)ccc12", "CLASS": "F"}
{"MOLECULE": "Clc1ccc(/C=N\\N=c2\\scc(-c3ccc(Cl)cc3)n2/N=C/c2ccc(Cl)cc2)cc1", "CLASS": "F"}
{"MOLECULE": "O=C1Nc2ccccc2/C1=N/N=C/c1ccsc1", "CLASS": "F"}
{"MOLECULE": "C[C@@H]1C(=O)N(C[C@H](Cc2ccccc2)NC(=O)OCc2ccccc2)[C@]1(Cc1ccccc1)C(=O)OC(C)(C)C", "CLASS": "F"}
{"MOLECULE": "CCNCCNc1cc(-c2ccc(Cl)cc2)c(C#N)c2nc3ccccc3n12", "CLASS": "T"}
{"MOLECULE": "CCNCCNc1cc(-c2cccc(C(F)(F)F)c2)c(C#N)c2nc3ccccc3n12", "CLASS": "T"}
{"MOLECULE": "C=C(C=O)C1CCC2(C(=O)O)CCC3(C)C(CCC4C5(C)CCC(O)C(C)(C)C5CCC43C)C12 (configuration not stated)", "CLASS": "T"}
{"MOLECULE": "OCCCCc1nccc2c1[nH]c1ccccc12", "CLASS": "F"}
{"MOLECULE": "COc1cc(NC(=O)c2cccc(-c3cc(=O)c4c(OC)c(OC)c(OC)cc4o3)c2)cc(OC)c1OC", "CLASS": "F"}
{"MOLECULE": "N#C/C=C(\\c1ccc([N+](=O)[O-])cc1)n1nnc2cc(Cl)c(Cl)cc21", "CLASS": "T"}
{"MOLECULE": "Nc1ccc(S(=O)(=O)Nc2ccsc2-c2nc(-c3ccccc3)no2)cc1", "CLASS": "F"}
{"MOLECULE": "CCc1nc2ccccc2[nH]1", "CLASS": "F"}
{"MOLECULE": "CCN(CC)CC(=O)Nc1cccc(C(=O)OC(C)C)c1", "CLASS": "F"}

###

System: ACHN renal
Experiment: NCI-60 one-dose screen, 48 h (100 = growth as untreated, 0 = no growth, -100 = all killed)
Conditions: 10 µM unless noted
Protocol: Growth inhibition of the ACHN human tumor cell line is measured as a screen for anti-cancer activity. Cells are grown in 96 well plates and exposed to the test compound for 48 hours. Compounds are tested at a single concentration, which is 10^-5 M for most compounds. The reported endpoint is percent growth (GI% or GIPRCNT), where numbers from 0 - 100% represent growth inhibition, and numbers from -100% - 0 represent cell death. For example, a value of 40 represents 60% growth inhibition. […]
About 83,000 compounds went through this panel and 20% of them were active in at least one assay; those are over-represented in the sample as a whole.
growth values for the compounds below.

{"COMPOUND": "COc1ccc(NC(=O)C(=O)c2c[nH]c3ccc(F)cc23)cc1", "UNITS OF MEASURE": "%", "growth": 93.8}
{"COMPOUND": "CC1(C)CC(=O)c2c(ccc(C(=O)C[C@H](N)CO)c2N)O1", "UNITS OF MEASURE": "%", "growth": 46.2}
{"COMPOUND": "CCc1cc(Cc2cc(CC)cc(C(C)(C)C)c2O)c(O)c(C(C)(C)C)c1", "UNITS OF MEASURE": "%", "growth": 13.1}
{"COMPOUND": "CCn1c(Sc2nnc(Nc3ccccc3)s2)nc2c1c(=O)n(C)c(=O)n2C", "UNITS OF MEASURE": "%", "growth": 91}
{"COMPOUND": "CC12CC(C#N)CCC1O2 (configuration not stated)", "UNITS OF MEASURE": "%", "growth": 101}
{"COMPOUND": "Oc1ccccc1-c1nc2ccccn2c1NCCN1CCOCC1", "UNITS OF MEASURE": "%", "growth": 95.3}
{"COMPOUND": "CCOC(=O)c1ccc(-c2ccc3cc(OC)ccc3c2)nc1C", "UNITS OF MEASURE": "%", "growth": 96.8}

###

Test system: MDA-MB-231 breast
Assay: NCI-60 one-dose screen, 48 h
Conditions: 10 µM unless noted
About 83,000 compounds went through this panel and 20% of them were active in at least one assay; those are over-represented in the sample as a whole. The source made the active and inactive calls. The calls were made as follows: active = growth percent below 10; inactive = the rest.
Outcome codes: active, inactive

{"COMPOUND": "Cc1cc(-c2ccc(N(C)C)cc2)c2sc(=O)[nH]c2n1", "ASSAY SYSTEM": "MDA-MB-231 breast", "CLASS": "inactive"}
{"COMPOUND": "C=C(C=O)[C@@H]1CC=C(C=O)CC1", "ASSAY SYSTEM": "MDA-MB-231 breast", "CLASS": "active"}
{"COMPOUND": "CC(C)c1ccc(C(=O)OC(=O)c2ccc(C(C)C)cc2)cc1", "ASSAY SYSTEM": "MDA-MB-231 breast", "CLASS": "inactive"}
{"COMPOUND": "CC(C)n1nc(C#Cc2cccc(NC(=O)c3cccc(C(F)(F)F)c3)c2)c2c(N)ncnc21", "ASSAY SYSTEM": "MDA-MB-231 breast", "CLASS": "active"}
{"COMPOUND": "Fc1ccc(Nc2nc(Nc3ccc(-c4nc5ccccc5[nH]4)cc3)c3cn[nH]c3n2)cc1", "ASSAY SYSTEM": "MDA-MB-231 breast", "CLASS": "inactive"}
{"COMPOUND": "O=C1/C(=C/c2ccc([N+](=O)[O-])cc2)COc2ccc(O)c(O)c21", "ASSAY SYSTEM": "MDA-MB-231 breast", "CLASS": "active"}
{"COMPOUND": "CSc1nc(N)c(CNC(C)c2ccccc2)c(=O)n1C (configuration not stated)", "ASSAY SYSTEM": "MDA-MB-231 breast", "CLASS": "inactive"}
{"COMPOUND": "O=C(CC12CC3CC(CC(C3)C1)C2)NCCOCCOCCOCCNC(=O)c1cc2c(o1)C(=O)c1ccccc1C2=O", "ASSAY SYSTEM": "MDA-MB-231 breast", "CLASS": "active"}
{"COMPOUND": "Cc1cc(Cl)nc(N(CCCNc2ccnc3cc(Cl)ccc23)Cc2ccccn2)n1", "ASSAY SYSTEM": "MDA-MB-231 breast", "CLASS": "inactive"}
{"COMPOUND": "CCN(CC)N=Nc1nn(C(=O)Nc2ccc(Cc3ccccc3)cc2)c2ccc(Cl)cc12", "ASSAY SYSTEM": "MDA-MB-231 breast", "CLASS": "inactive"}
{"COMPOUND": "CN1C[C@@H](c2ccc(Cl)cc2)[C@]2(NC(=S)N(c3ccc(F)c(Cl)c3)C2=O)[C@@]12C(=O)NC1C=CC(Cl)=C[C@H]12 (some centres not stated)", "ASSAY SYSTEM": "MDA-MB-231 breast", "CLASS": "inactive"}
{"COMPOUND": "Nc1ccc2c(S(=O)(=O)O)ccc(S(=O)(=O)O)c2c1", "ASSAY SYSTEM": "MDA-MB-231 breast", "CLASS": "inactive"}

###

Listed next: entries and their corresponding growth.
System: OVCAR-4 ovarian
Experiment: NCI-60 one-dose screen, 48 h (100 = growth as untreated, 0 = no growth, -100 = all killed)
Conditions: 10 µM unless noted
This is part of a sample that, as a whole, favours compounds with a hit. Of some 83,000 tested, about 20% had one in any assay.

{"COMPOUND": "Cc1c2c(cn1Cc1ccccc1)CCc1cn[nH]c1-2", "growth [%]": 81.3}
{"COMPOUND": "CCOC(=O)c1nnn(-c2ccccc2)c1C1=CN(C)CCC1", "growth [%]": 99.9}
{"COMPOUND": "CS(=O)(=O)c1ccc(-c2[nH]c3ccc(F)cc3c2/C=N/NC(N)=S)cc1", "growth [%]": 50}
{"COMPOUND": "O=[N+]([O-])c1ccc(-c2cc3c(Nc4ccc(Cl)c(C(F)(F)F)c4)ncnc3s2)cc1", "growth [%]": 11.1}
{"COMPOUND": "CC(C)OC(=O)NNC(=O)c1ccncc1", "growth [%]": 101}
{"COMPOUND": "Cc1ccc(S(=O)(=O)Nc2sccc2-c2nc(-c3ccccc3)no2)cc1", "growth [%]": 95.1}
{"COMPOUND": "Nc1ccc(S(=O)(=O)Nc2ccsc2-c2nc(-c3ccccc3)no2)cc1", "growth [%]": 81.9}
{"COMPOUND": "O=C1CCC(N2C(=O)c3cccc(NCCCC4CCN(CCNC(=O)c5cc6c(o5)C(=O)c5ccccc5C6=O)CC4)c3C2=O)C(=O)N1 (centres undefined)", "growth [%]": -99.3}
{"COMPOUND": "COc1cc(/C=C/c2nc(Nc3ccc(S(=O)(=O)Nc4cc(C)on4)cc3)c3ccccc3n2)ccc1O", "growth [%]": 91}
{"COMPOUND": "CNC=O", "growth [%]": 115}
{"COMPOUND": "CN1CCN(c2ccc3nc(/N=C/c4ccc5sc(-c6ccc([N+](=O)[O-])cc6)nc5c4)sc3c2)CC1", "growth [%]": 105}
{"COMPOUND": "CC(=O)Nc1ccc(C(=O)/C=C/c2ccccc2)cc1", "growth [%]": 99.9}
{"COMPOUND": "Cn1ncc2c(Nc3ccc(Br)cc3)nc(Nc3ccc(Br)cc3)nc21", "growth [%]": 51.9}
{"COMPOUND": "CCOC(=O)C(O)C(O)(c1ccccc1)c1ccccc1 (centres undefined)", "growth [%]": 111}
{"COMPOUND": "O=C1c2cccc3c(-c4ccc(-c5nc6c7ccccc7c7ccccc7c6[nH]5)cc4)ccc(c23)C(=O)N1CCN1CCNCC1", "growth [%]": -23.2}
{"COMPOUND": "C=CCN1C(=O)[C@]2(SC1=S)[C@H](c1cccc(Cl)c1)CN(C)[C@]21C(=O)NC2C=CC(Cl)=C[C@H]21 (some centres undefined)", "growth [%]": 49.4}
{"COMPOUND": "CCCCN(Cc1ccc(C(=O)NO)cc1)C(=O)Nc1ccc(OCCCCCCCCCn2cc(CCCCC(=O)N[C@H](C(=O)N3C[C@H](O)C[C@H]3C(=O)NCc3ccc(-c4scnc4C)cc3)C(C)(C)C)nn2)cc1", "growth [%]": 49.3}
{"COMPOUND": "NS(=O)(=O)c1cn(-c2ncnc3nc[nH]c23)ccc1=O", "growth [%]": 95.1}
{"COMPOUND": "COc1cc2ccccc2cc1C(=O)NC(=S)Nc1ccc(-c2nc3ccccc3[nH]2)cc1", "growth [%]": -35.9}
{"COMPOUND": "Cc1cc(C)on1", "growth [%]": 98}
{"COMPOUND": "Clc1ccc2c(NCCCN3CCN(c4nc(-n5ccnc5)nc5ccccc45)CC3)ccnc2c1", "growth [%]": 64.9}
{"COMPOUND": "COc1ccc(/C=C2\\COc3ccc(O)c(O)c3C2=O)c(OC)c1", "growth [%]": 47.3}
{"COMPOUND": "O=C(CC12CC3CC(CC(C3)C1)C2)NCCOCCOCCNC(=O)c1cc2c(o1)C(=O)c1ccccc1C2=O", "growth [%]": -99.1}
{"COMPOUND": "NC(=S)N/N=C/C(=O)O", "growth [%]": 75.3}
{"COMPOUND": "Cc1nn(-c2ccccc2)c2c1C(c1ccc([N+](=O)[O-])cc1)C(C#N)=C(N)O2 (centres undefined)", "growth [%]": 100}
{"COMPOUND": "Fc1ccc(Nc2nc3nonc3nc2Nc2ccc(F)cc2)cc1", "growth [%]": 5.75}
{"COMPOUND": "CCOC(=O)c1ccc(NC(=O)CCCN(CC)CC)cc1", "growth [%]": 111}
{"COMPOUND": "O=C(NC(=S)Nc1ccc(-c2nc3ccccc3[nH]2)cc1)c1ccc2ccccc2c1", "growth [%]": -18.7}
{"COMPOUND": "N#C/C(=C\\c1ccc2c(c1)OCO2)n1nnc2ccccc21", "growth [%]": 34.2}
